Target: T1, human 5T4 oncofoetal antigen (human, UniProt Q13641 32-420)
T1 construct: whole, on cells; also called hu 5T4; human 5T4 antigen
T1 sequence (looked up): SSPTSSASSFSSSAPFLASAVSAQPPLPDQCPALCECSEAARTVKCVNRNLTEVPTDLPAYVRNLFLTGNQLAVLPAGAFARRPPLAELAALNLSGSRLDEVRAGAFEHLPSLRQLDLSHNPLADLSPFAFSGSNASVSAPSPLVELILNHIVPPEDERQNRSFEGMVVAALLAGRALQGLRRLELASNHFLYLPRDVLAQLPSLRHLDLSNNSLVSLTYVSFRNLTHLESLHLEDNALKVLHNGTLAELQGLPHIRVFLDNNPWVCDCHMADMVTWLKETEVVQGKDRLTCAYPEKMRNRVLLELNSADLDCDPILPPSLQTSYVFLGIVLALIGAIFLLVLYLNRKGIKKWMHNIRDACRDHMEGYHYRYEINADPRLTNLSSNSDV
Experiment: flow cytometry, CHOZN cells expressing hu 5T4
measured.metric: EC50 (µg/mL)
Answer format: numeric, µg/mL implied, no suffix.

Look up EC50 for this binder: humanized anti-5T4 antibody 833a with HC-41C mutation (antibody, human IgG1, kappa, V domains shown) VH: EVQLVESGGGLIQPGGSLRLSCAASGIDLSHYVVGWVRQACGKGLEWVSIIYGSGRTYYANWAKGRFTISKDNSKNTLYVRMNSLRAEDTAVYYCARDASVSVYYWGYFDLWGQGTLVTVSS VL: AYDMTQSPSSVSASVGDRVTITCQASQSIGSELAWYQQKPGKAPKLLIYRASTLESGVPSRFSGSGSGTDFTLTISSLQPEDFATYYCQQGYTYSEIDNAFGGGTKVEIKR 0.22

Look up EC50 for this binder: humanized anti-5T4 antibody 833b with HC-41C mutation (antibody, human IgG1, kappa, V domains shown) VH: EVQLVESGGGLVQPGGSLRLSCAASGIDLSHYVVGWVRQACGKGLEWVSIIYGSGRTYYANWAKGRFTISRDNSKNTLFLRMNSLRVEDTAVYFCARDASVSVYYWGYFDLWGQGTLVTVSS VL: AYDMTQSPSSVSASVGDRVTITCQASQSIGSELAWYQQKPGKAPKLLIYRASTLESGVPSRFSGSGSGTDFTLTISSLQPEDFATYYCQQGYTYSEIDNAFGGGTKVEIKR 0.15
